# PROTOCOL: Measurement of log P values by HPLC on reversed phase columns (methods [a] pH 2.3, [b] pH 2.7, [c] pH 7.8)
# Format: physicochemical
# ASSAY_CONTEXT: HPLC reversed phase, method [b] (pH 2.7)
I'd be grateful if you could share measured logP for these entries.

Examples from the recorded data:
Cn1cc(C(=O)N[C@@H]2CC[C@@H]2c2cc(F)ccc2C(F)(F)F)c(C(F)F)n1 (relative stereo) :: 2.85^[b]
O=C(NC1CCCCC1c1ccc(Cl)cc1Cl)c1ccccc1Cl (centres unmarked) :: 4.47^[b]
O=C(NC1CCCCC1c1ccccc1Cl)c1c(F)cccc1F (centres unmarked) :: 3.67^[b]
O=C(NC1CCCC1c1ccc(Cl)cc1)c1ccccc1I (centres unmarked) :: 3.64^[b]
O=C(NC1CCC1c1ccc(Cl)cc1Cl)c1ccccc1 (centres unmarked) [Example 450] :: 3.75^[b]
O=C(NC1CCCC1c1ccccc1Br)c1ccccc1Cl (centres unmarked) :: 3.52^[b]

List reported logP for each of these compounds:
1. O=C(N[C@@H]1CC[C@@H]1c1c(F)cccc1C(F)(F)F)c1cccc(Cl)c1 (relative stereo)
2. Cn1cc(C(=O)NC2CCC2c2ccc(Cl)cc2Cl)c(C(F)F)n1 (centres unmarked) [Example 469]
3. Cc1nc(C(F)(F)F)c(C(=O)N[C@@H]2CCC[C@@H]2c2ccc(OC(C)C)cc2)s1 (relative stereo)
4. O=C(NC1CCCCCC1c1ccccc1C(F)(F)F)c1ccccc1C(F)(F)F (centres unmarked)
5. O=C(NC1CCCC1c1ccc(Cl)cc1Cl)c1ccccc1Cl (centres unmarked)
6. O=C(NC1CC1c1ccccc1Cl)c1cccnc1C(F)(F)F (centres unmarked)
7. CC(C)Oc1ccc([C@H]2CCC[C@H]2NC(=O)c2cccnc2Cl)cc1 (relative stereo)
8. O=C(N[C@@H]1C[C@@H]1c1ccc(Cl)cc1)c1c(F)cccc1F (relative stereo)

Output:
4.26^[b]
2.95^[b]
3.80^[b]
4.55^[b]
3.87^[b]
2.62^[b]
3.06^[b]
2.64^[b]

====

# PROTOCOL: Measurement of log P values by HPLC on reversed phase columns (methods [a] pH 2.3, [b] pH 2.7, [c] pH 7.8)
# Assay type: physicochemical
# ASSAY_CONTEXT: HPLC reversed phase, method [b] (pH 2.7)
MEASURED_PROPERTY: logP

Examples from the recorded data:
O=C(N[C@@H]1CCC[C@@H]1c1ccccc1F)c1c(F)cccc1F (relative stereo) :: 2.95^[b]
O=C(N[C@@H]1CCC[C@H]1c1ccccc1C(F)(F)F)c1cccnc1C(F)(F)F (relative stereo) :: 3.27^[b]
O=C(NC1CCCCCC1c1ccccc1C(F)(F)F)c1cccnc1C(F)(F)F (stereo not shown) :: 3.94^[b]
O=C(N[C@@H]1CC[C@@H]1c1c(F)cccc1C(F)(F)F)c1cccnc1Cl (relative stereo) :: 2.83^[b]
CC(C)Oc1ccc([C@H]2CCC[C@H]2NC(=O)c2ccc(I)s2)cc1 (relative stereo) :: 4.43^[b]
O=C(N[C@@H]1CC[C@@H]1c1cc(F)ccc1C(F)(F)F)c1ncc(C(F)(F)F)cc1Cl (relative stereo) :: 3.91^[b]

For the next question, use this compound.
Input: logP lookup needed for O=C(N[C@@H]1CC[C@H]1c1ccccc1Cl)c1c(F)cccc1F (relative stereo) , thanks.
Output: 3.11^[b]

====

# PROTOCOL: Measurement of log P values by HPLC on reversed phase columns (methods [a] pH 2.3, [b] pH 2.7, [c] pH 7.8)
# Type: physicochemical
# ASSAY_CONTEXT: HPLC on reversed phase columns, method [b], pH 2.7
I'd appreciate it if you could supply logP values for the items below.

Known results for compounds:
O=C(NC1CCC1c1c(Cl)cccc1Cl)c1c(F)cccc1F (centres unmarked) :: 3.33^[b]
Cc1nn(C)c(C)c1C(=O)NC1CC1c1ccc(Br)cc1 (centres unmarked) :: 3.26^[b]
O=C(NC1CCC1c1ccc(Cl)cc1C(F)(F)F)c1ccccc1Br (centres unmarked) [Example 723] :: 3.80^[b]
O=C(N[C@@H]1C[C@H]1c1ccccc1)c1c(Cl)cccc1Cl (relative stereo) :: 2.99^[b]

The record that follows has no logP shown yet.
Input: So what does the record say about logP for Cc1cccnc1C(=O)N[C@@H]1CCC[C@@H]1c1ccc(F)c(F)c1 (relative stereo) ?
Output: 3.31^[b]

====

# PROTOCOL: Measurement of log P values by HPLC on reversed phase columns (methods [a] pH 2.3, [b] pH 2.7, [c] pH 7.8)
# Type: physicochemical
# ASSAY_CONTEXT: reversed phase HPLC columns, pH 2.7, HPLC on reversed phase columns, method [b] (pH 2.7); read-out: logP
Please provide measured chromatographic logP for the entries that follow.
Answers are plain numbers.

Before answering, review these 3 worked examples.
O=C(N[C@@H]1CC[C@@H]1c1c(Cl)cccc1Cl)c1nccnc1Cl :: 3.07
O=C(N[C@@H]1CC[C@@H]1c1c(Cl)cccc1Cl)c1ccccc1Br :: 3.6
O=C(N[C@@H]1CC[C@@H]1c1c(Cl)cccc1Cl)c1ccc(Cl)cc1 :: 3.36

Would you mind listing chromatographic logP for each of the following molecules?
1. O=C(N[C@@H]1CC[C@@H]1c1c(Cl)cccc1Cl)c1ccccc1I
2. Cc1nc(C(F)(F)F)c(C(=O)N[C@@H]2CC[C@@H]2c2c(Cl)cccc2Cl)s1
3. O=C(N[C@@H]1C[C@]1(F)c1ccc(Cl)cc1)c1ccccc1Br
4. O=C(N[C@@H]1CC[C@@H]1c1c(Cl)cccc1Cl)c1ccc(Cl)cc1Cl
5. Cc1nc(C(F)(F)F)c(C(=O)N[C@@H]2CCC[C@@H]2c2ccc(C(F)(F)F)cc2)s1
6. O=C(N[C@@H]1CC[C@H]1c1ccc(Cl)cc1C(F)(F)F)c1cccnc1
7. O=C(N[C@@H]1CC[C@@H]1c1c(Cl)cccc1Cl)c1cccnc1C(F)(F)F

Output:
3.72
3.6
2.84
4.1
3.71
2.74
2.95

Need chromatographic logP for each of these molecules.
1. O=C(N[C@@H]1CC[C@@H]1c1c(Cl)cccc1Cl)c1sccc1I
2. O=C(N[C@@H]1C[C@]1(F)c1ccc(Cl)cc1)c1ccccc1Cl
3. O=C(N[C@@H]1CC[C@@H]1c1c(Cl)cccc1Cl)c1ncc(C(F)(F)F)cc1Cl
4. O=C(N[C@@H]1CC[C@@H]1c1c(Cl)cccc1Cl)c1ccccc1C(F)(F)F

Output:
1: 4.21; 2: 2.78; 3: 4.28; 4: 3.71

State the recorded chromatographic logP for every item in the following list.
1. O=C(N[C@@H]1C[C@]1(F)c1ccc(Cl)cc1)c1sccc1I
2. O=C(N[C@@H]1CC[C@@H]1c1c(Cl)cccc1Cl)c1ccccc1[N+](=O)[O-]
3. O=C(N[C@@H]1CCC[C@@H]1c1ccc(C(F)(F)F)cc1)c1nccnc1Cl

Output:
1. 3.15
2. 3.08
3. 3.2

====

# PROTOCOL: Measurement of log P values by HPLC on reversed phase columns (methods [a] pH 2.3, [b] pH 2.7, [c] pH 7.8)
# Format: physicochemical
# ASSAY_CONTEXT: HPLC reversed phase, method [b] (pH 2.7)
Please respond with reported logP for every item in the list.

Cc1nc(C(F)(F)F)c(C(=O)N[C@@H]2CC[C@@H]2c2c(F)cccc2C(F)(F)F)s1 (relative stereo) [Example 573] :: 3.47^[b]

Take each entry in turn and give its logP.
1. O=C(N[C@@H]1CC[C@H]1c1ccccc1Cl)c1cccnc1Cl (relative stereo) [Example 533]
2. O=C(N[C@@H]1CC[C@@H]1c1ccccc1Cl)c1ccc(Cl)cc1Cl (relative stereo) [Example 249]
3. O=C(N[C@@H]1CC[C@@H]1c1ccc(F)cc1C(F)(F)F)c1cccnc1Cl (relative stereo) [Compound 515]

Output:
["3.65^[b]", "3.65^[b]", "2.73^[b]"]

====

Exercise: state measured chromatographic logP for each of the compounds provided.
# PROTOCOL: Measurement of log P values by HPLC on reversed phase columns (methods [a] pH 2.3, [b] pH 2.7, [c] pH 7.8)
# Format: physicochemical
# ASSAY_CONTEXT: reversed phase HPLC columns, pH 2.7, HPLC on reversed phase columns, method [b] (pH 2.7); read-out: logP
Numbers only.

For orientation, consider the following solved cases.
O=C(N[C@@H]1C[C@]1(F)c1ccc(Cl)cc1)c1ccccc1I :: 2.98
O=C(N[C@@H]1CC[C@@H]1c1c(Cl)cccc1Cl)c1ccccc1Cl :: 3.56
O=C(N[C@@H]1CC[C@@H]1c1c(Cl)cccc1Cl)c1ncccc1Cl :: 3.32

Input: Entry `O=C(N[C@@H]1CC[C@@H]1c1ccc(Cl)cc1C(F)(F)F)c1cccnc1Cl` : reported chromatographic logP = ?
Output: 3.09

====

For each of the compounds below, state its logP.
# PROTOCOL: Measurement of log P values by HPLC on reversed phase columns (methods [a] pH 2.3, [b] pH 2.7, [c] pH 7.8)
# Assay type: physicochemical
# ASSAY_CONTEXT: HPLC on reversed phase column, method [b], pH 2.7

O=C(N[C@@H]1CC[C@@H]1c1ccc(Br)cc1C(F)(F)F)c1cccnc1C(F)(F)F (relative stereo) :: 3.52^[b]
O=C(N[C@@H]1CC[C@H]1c1ccccc1C(F)(F)F)c1ccccc1[N+](=O)[O-] (relative stereo) :: 3.13^[b]
O=C(N[C@@H]1CC[C@@H]1c1ccc(Cl)cc1C(F)(F)F)c1c(F)cccc1F (relative stereo) :: 3.52^[b]
Cc1nc(C(F)(F)F)c(C(=O)N[C@@H]2CC[C@H]2c2cccc(F)c2C(F)(F)F)s1 (relative stereo) :: 3.56^[b]
Cn1ncc(C(=O)N[C@@H]2C[C@@H]2c2ccc(Cl)cc2Cl)c1C(F)F (relative stereo) :: 2.99^[b]
O=C(N[C@@H]1CC[C@@H]1c1ccc(Cl)cc1C(F)(F)F)c1ccc(Cl)cc1 (relative stereo) :: 4.04^[b]

Input: Query: logP; subject: O=C(N[C@@H]1CC[C@H]1c1ccc(Cl)cc1Cl)c1ccccc1[N+](=O)[O-] (relative stereo)
Output: 3.47^[b]
